The measurements presented in this section are drawn from patent US20180037631A1.

# assay system: T1, IGF1R-Fc (extracellular domain of human IGF1R aa 1-932 fused to hinge and constant regions of human IgG1) (human, UniProt P08069 31-932)
# T1 construct: range 1-932; made in house by transient transfection, purified on Protein A; also called IGF-IR-Fc; not shown: hinge and constant regions of human IgG1
# method: SPR Biacore
endpoint: Kd (nM)
Answers are plain numbers, in nM.

Take a look at these entries with their results.
>  <binder>
I1-GSGCGS8-E5 pegylated (designed binder, PEG on the Cys of the GSGCGS8 linker, alternative clone of I1-GS10-E5 pegylated; tail of first monomer EIEK (D to E); also called I1-GSGCGS8-E5(3)) MGVSDVPRDLEVVAATPTSLLISWSARLKVARYYRITYGETGGNSPVQEFTVPKNVYTATISGLKPGVDYTITVYAVTRFRDYQPISINYRTEIEKGSGCGSGSGSGSGSGSGSGSVSDVPRDLEVVAATPTSLLISWWAPVDRYQYYRITYGETGGNSPVQEFTVPRDVYTATISGLKPGVDYTITVYAVTDYKPHADGPHTYHESPISINYRTEHHHHHH

>  <Kd (nM)>
0.29

$$$$
>  <binder>
I1(S62C)-GS10-E5 pegylated (designed binder, PEG on Cys at position 62 of I1 (position of SEQ ID NO: 1), also called I1(S62C)-GS10-E5(5)) MGVSDVPRDLEVVAATPTSLLISWSARLKVARYYRITYGETGGNSPVQEFTVPKNVYTATICGLKPGVDYTITVYAVTRFRDYQPISINYRTEIEKGSGSGSGSGSGSGSGSGSGSVSDVPRDLEVVAATPTSLLISWWAPVDRYQYYRITYGETGGNSPVQEFTVPRDVYTATISGLKPGVDYTITVYAVTDYKPHADGPHTYHESPISINYRTEHHHHHH

>  <Kd (nM)>
0.7

$$$$
>  <binder>
I1-GS10-E5(S62C) pegylated (designed binder, PEG on Cys at position 62 of E5 (position of SEQ ID NO: 1), also called I1-GS10-E5(S62C)(6)) MGVSDVPRDLEVVAATPTSLLISWSARLKVARYYRITYGETGGNSPVQEFTVPKNVYTATISGLKPGVDYTITVYAVTRFRDYQPISINYRTEIEKGSGSGSGSGSGSGSGSGSGSVSDVPRDLEVVAATPTSLLISWWAPVDRYQYYRITYGETGGNSPVQEFTVPRDVYTATICGLKPGVDYTITVYAVTDYKPHADGPHTYHESPISINYRTEHHHHHH

>  <Kd (nM)>
0.26

$$$$

Now, please, on to the next binder.
Entry I1-GS10-E5(S91C) pegylated (designed binder, PEG on Cys at position 91 of E5 (position of SEQ ID NO: 1), also called I1-GS10-E5(S91C)(8)) MGVSDVPRDLEVVAATPTSLLISWSARLKVARYYRITYGETGGNSPVQEFTVPKNVYTATISGLKPGVDYTITVYAVTRFRDYQPISINYRTEIEKGSGSGSGSGSGSGSGSGSGSVSDVPRDLEVVAATPTSLLISWWAPVDRYQYYRITYGETGGNSPVQEFTVPRDVYTATISGLKPGVDYTITVYAVTDYKPHADGPHTYHESPICINYRTEHHHHHH : reported Kd = ?
0.28
